Listed next: entries and their corresponding Percent Effect.
test system: Mycobacterium tuberculosis; test: Cornell M. t heat shock assay; assay type: functional, organism-based; parameters: dose or concentration left out as unconfirmed; also: in the data most compounds retested in dose-response had high values
About 950 (1.4%) of roughly 69,000 compounds showed an effect of 50% or more. What follows is part of a selection rich in strong results, with near analogues and random picks from the rest.
Give the number; % is assumed, so skip it.

Sample records with Percent Effect:
molecule: Cc1ccc(Cl)cc1N1CCC(CNC(=O)Cn2cccn2)C1 (stereo not given)
measured-on: Mycobacterium tuberculosis
Percent Effect / %: 6.122
--
molecule: CN1CCN(CC2CC2)C(=O)C12CCN(C(=O)CC(F)(F)F)CC2.O=C(O)C(F)(F)F
measured-on: Mycobacterium tuberculosis
Percent Effect / %: 5.441
--
molecule: O=C(O)C(F)(F)F.O=C(c1cscn1)N1CCC2(CCN(Cc3cccs3)CC2)C1
measured-on: Mycobacterium tuberculosis
Percent Effect / %: 3.711

Q. Fill in the blank: the reported Percent Effect of COc1c[nH]c(C(=O)Nc2nc(C)cs2)cc1=O is ____.
A. 69.04

Q. Would you kindly share the measured Percent Effect for COc1cc(CN2CCCC2)ccc1Oc1ncccc1C(F)(F)F ?
A. -12.36

Q. Could you share which Percent Effect value was measured for O=C(NCC1CCCCC1)N1C[C@H]2C[C@H](C(=O)N3CCCC3)[C@@H](C1)O2 ?
A. -29.22

Q. Tell me the measured Percent Effect of Cc1noc(NC(=O)c2ccc(Br)s2)n1 , please.
A. 103.3

Q. Which Percent Effect is reported for this molecule? COc1coc(C(=O)Nc2nc(-c3ccccn3)cs2)cc1=O
A. 1.222

Q. I would be grateful if you could share the reported Percent Effect for Cc1noc(NC(=O)c2ccccc2)n1 .
A. 75.22

Q. Which Percent Effect is reported for this molecule? CC(C)c1nc(N2CCC(N3CCCCCC3)CC2)c2cnn(C)c2n1
A. 94.23

Q. Entry Cc1noc(NC(=O)c2ccc(Br)o2)n1 has what Percent Effect?
A. -6.271

Q. Quick check: Percent Effect of COc1coc(C(=O)Nc2nc(-c3ccncc3)cs2)cc1=O ?
A. -11.7

Q. What value of Percent Effect has been recorded for this entry: Cn1nc(CNC(=O)c2ccc(OC(F)(F)F)cc2)c2c1CCOC2
A. -19.12

Q. So what does the record say about Percent Effect for COc1ccc(Oc2ncccc2C(F)(F)F)cc1CN1CCCC1 ?
A. 7.068
